assay.system: T1, human ROR1 on the surface of tumor cells (human, UniProt Q01973 30-937)
T1 construct: whole, on cells; also called ROR1 on the cell surface; tumor cell ROR1
T1 sequence (Q01973 30-937): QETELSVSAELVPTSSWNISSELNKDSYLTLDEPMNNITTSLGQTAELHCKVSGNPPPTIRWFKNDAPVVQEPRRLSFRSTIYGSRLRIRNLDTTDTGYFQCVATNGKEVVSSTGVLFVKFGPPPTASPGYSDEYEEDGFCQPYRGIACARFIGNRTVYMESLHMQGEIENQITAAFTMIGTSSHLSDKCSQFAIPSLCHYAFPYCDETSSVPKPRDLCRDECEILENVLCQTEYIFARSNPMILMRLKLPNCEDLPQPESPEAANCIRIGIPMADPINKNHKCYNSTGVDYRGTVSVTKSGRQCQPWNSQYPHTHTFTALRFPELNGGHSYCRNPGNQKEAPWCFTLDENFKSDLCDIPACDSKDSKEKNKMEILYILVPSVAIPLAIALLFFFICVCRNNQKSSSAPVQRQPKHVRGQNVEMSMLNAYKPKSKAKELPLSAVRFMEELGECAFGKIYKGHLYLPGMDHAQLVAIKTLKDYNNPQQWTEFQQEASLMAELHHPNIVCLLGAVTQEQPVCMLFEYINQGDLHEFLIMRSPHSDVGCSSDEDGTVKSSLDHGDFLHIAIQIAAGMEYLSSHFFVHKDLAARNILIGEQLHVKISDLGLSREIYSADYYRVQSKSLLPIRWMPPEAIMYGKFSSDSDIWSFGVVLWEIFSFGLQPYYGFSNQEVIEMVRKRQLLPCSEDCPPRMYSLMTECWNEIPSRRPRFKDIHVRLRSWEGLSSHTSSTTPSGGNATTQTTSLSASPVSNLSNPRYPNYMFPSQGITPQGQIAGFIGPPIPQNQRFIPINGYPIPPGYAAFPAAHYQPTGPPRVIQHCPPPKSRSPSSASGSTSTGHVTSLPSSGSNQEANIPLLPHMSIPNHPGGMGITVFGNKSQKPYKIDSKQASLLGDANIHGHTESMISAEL
measurement.protocol: FACS, MDA-MB-231 cells
Documented EC50 across a set of binders

# binder, EC50 (nM)
records = [
    ("mAb007c (antibody, V domains shown, Human-mouse chimeric) VH: EVQLQQSGPELVKPGASVKMSCKASGYTFTDYNMHWVKQSHGKSLEWIGYINPNNGGTSYNQKFKGKATLTVNKSSSTAYMELRSLTSDDSAVYYCARRGYGSGYAMDYWGQGTSVTVSS VL: DVLMTQTPLSLPVSLGDQASISCRSSQSIVHTNGNTYLEWYLQNPGQSPKLLIYKVFNRFSGVPDRFSGSGSGTDFTLKISRVEAEDLGVYYCFQGSLFPYTFGGGTKLEIK", 0.25),
    ("mAb005c_v1 (antibody, IgG1, V domains shown, Chimeric mutant in hIgG1,k vector; the VH entry already holds the site-directed change; also called human-mouse chimeric antibody mutant of mAb005c; site-directed mutant of mAb005c) VH: EVQLVESGGGLVKPGGSLKLSCAASGFTFNSYAMSWVRQTPEKRLEWVATISDAGSYTYYPDNEKGRFTISRDNAKNNLYLQMSHLKSEDTAIYYCVRGGYYYNLYAMDYWGQGTSVTVSS VL: DIVLTQSPASLAVSLGQRAIISCKASQSVSFPGTSLMHWYQQKPGQQPKLLIYRASNLEAGVPTRFSGSGSRTDFTLNIHPVEEDDTATYYCQQSREYPWTFGGGTQLEIK", 0.067),
    ("mAb006c (antibody, V domains shown, Human-mouse chimeric) VH: EVQLQQSGPELVKPGASLKMSCKASGYTFPDYNIHWVKQSHGKSLEWIGYINPNNGGTTYNQKFKGKATLTVSKSSSTAYMELRSLTSEDSAVYSCARRGYGSSYAMDYWAQGTSVTVSS VL: DVLMTQSPLSLPVSLGDQASISCRSSHIIVHTNGNTYLEWYLQKPGQSPKLLIYKVSNRFSGVPDRFSGSGSGTDFTLKISRVEAEDLGVYYCFQGSRVPYTFGGGTKLEIK", 0.4),
]
